// read-out IC50, gathered for Histone deacetylase 8 (Homo sapiens, UniProt Q9BY41) from published studies
Sequence (Q9BY41 whole entry): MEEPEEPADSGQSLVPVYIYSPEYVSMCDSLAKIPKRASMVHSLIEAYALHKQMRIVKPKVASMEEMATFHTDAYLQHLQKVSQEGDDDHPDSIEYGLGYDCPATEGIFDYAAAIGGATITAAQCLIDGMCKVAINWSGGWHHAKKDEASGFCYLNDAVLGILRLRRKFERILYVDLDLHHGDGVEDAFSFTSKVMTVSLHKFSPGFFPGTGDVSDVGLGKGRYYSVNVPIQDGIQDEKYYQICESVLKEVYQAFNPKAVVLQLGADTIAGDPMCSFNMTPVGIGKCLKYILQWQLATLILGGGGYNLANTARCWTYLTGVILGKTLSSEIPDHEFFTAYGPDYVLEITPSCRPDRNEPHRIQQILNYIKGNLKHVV
State the answer as a number, implicitly in µM.

Known results for compounds:
INSERT INTO measurements (structure_notation, assay_metric, unit_text, numeric_value) VALUES
  ('Cc1cccc(-n2c(SCc3ccc(C(=O)NO)cc3)nc3ccccc3c2=O)c1', 'IC50', 'µM', 0.79),
  ('COc1cc(-c2cc(-c3ccc(OCCCCC(=O)NO)cc3)[nH]c(=O)c2C#N)cc(OC)c1OC', 'IC50', 'µM', 19.6);

Task item: Find the measured IC50 of `O=C(CCCCCN1C(=O)c2cccc3cc(NC(=O)c4ccccc4)cc(c23)C1=O)NO` with Histone deacetylase 8 (Homo sapiens, UniProt Q9BY41) as test system.
Reply: 2.95

Task item: Output reported IC50 of the compound `O=C(NO)c1ccc(CSc2nc3ccccc3c(=O)n2-c2ccc(Cl)cc2)cc1` on Histone deacetylase 8 (Homo sapiens, UniProt Q9BY41).
Reply: 24

Task item: Determine reported IC50 for `O=C(NO)c1ccc(CSc2nc3cc(Cl)ccc3c(=O)n2-c2ccccc2F)cc1` ; test system: Histone deacetylase 8 (Homo sapiens, UniProt Q9BY41).
Reply: 3.3

---

// read-out IC50, gathered for Histone deacetylase 8 (Homo sapiens, UniProt Q9BY41) from published studies
A number alone suffices; assume µM.

Worked set:
INSERT INTO measurements (structure_notation, assay_system, numeric_value) VALUES
  ('COc1cc(/C=C/C(=O)c2ccc(OCCCCCC(=O)NO)cc2)cc(OC)c1OC', 'Histone deacetylase 8 (Homo sapiens, UniProt Q9BY41)', 2.26),
  ('COc1ccccc1OCc1ccc(C(=O)NN)cc1', 'Histone deacetylase 8 (Homo sapiens, UniProt Q9BY41)', 130);

Task item: State the measured IC50 (Histone deacetylase 8 (Homo sapiens, UniProt Q9BY41)) of `C/C(=N\OCCCCC(=O)NO)c1ccc(-c2ccccc2)cc1`
Reply: 13.7
